- Tested on: mRNA
- assay_overview: mRNA encapsulation (modified Quant-iT RiboGreen assay)
- Assay type: physicochemical
- setup_conditions: mRNA; formulation recipe R7
Starred links: 1 amine or outer side, 2 acyl side, 3 side chain; linkers in the order of their positions; H or OH if unused. Non-standard residues stand in square brackets, D forms with d. Residues, ends and D or L forms follow the SMILES beside them. *: point of attachment. Gly(N-(3-decanoyloxypropyl)) = CCCCCCCCCC(=O)OCCCNCC(=O)O; N(2-decanoyloxyethyl)Gly = CCCCCCCCCC(=O)OCCNCC(=O)O; Gly(N-(CH2)3O-octanoyl) = CCCCCCCC(=O)OCCCNCC(=O)O; Gly(N-3-morpholinopropyl) = O=C(O)CNCCCN1CCOCC1; N(2-ethylhexyl)Gly = CCCCC(CC)CNCC(=O)O; X1 = CCCCC(CC)CSSCCN(CC(=O)[*:2])[*:1]; N(CH(CH2OH)2)Gly = O=C(O)CNC(CO)CO; N(octyl)Gly = CCCCCCCCNCC(=O)O; For = O=C*

{"molecule": "CCCCCCCCCC(=O)OCCCN(CC(=O)N(CC(N)=O)CC(CC)CCCC)C(=O)CN(CCCCCCCC)C(=O)CN(CC(CC)CCCC)C(=O)CN(CCCOC(=O)CCCCCCCCC)C(=O)CN(CCCCCCCC)C(=O)CNC(CO)CO (stereo not drawn) [Compound 32] (H-[N(CH(CH2OH)2)Gly][N(octyl)Gly][Gly(N-(3-decanoyloxypropyl))][N(2-ethylhexyl)Gly][N(octyl)Gly][Gly(N-(3-decanoyloxypropyl))][N(2-ethylhexyl)Gly]-NH2)", "unit_name": "%", "% Encapsulation": 79.1}
{"molecule": "CCCCCCCC(=O)OCCCN(CC(=O)N(CCCOC(=O)CCCCCCC)CC(=O)N(CCSSCC(CC)CCCC)CC(=O)N(CCCOC(=O)CCCCCCC)CC(=O)N(CCCOC(=O)CCCCCCC)CC(=O)N(CCSSCC(CC)CCCC)CC(N)=O)C(=O)CNC(CO)CO (stereo not drawn) [Compound 128] (H-[N(CH(CH2OH)2)Gly][Gly(N-(CH2)3O-octanoyl)][Gly(N-(CH2)3O-octanoyl)][X1][Gly(N-(CH2)3O-octanoyl)][Gly(N-(CH2)3O-octanoyl)][X1]-NH2)", "unit_name": "%", "% Encapsulation": 92.5}
{"molecule": "CCCCCCCCCC(=O)OCCN(CC(=O)N(CCOC(=O)CCCCCCCCC)CC(=O)N(CC(=O)N(CCOC(=O)CCCCCCCCC)CC(=O)N(CCOC(=O)CCCCCCCCC)CC(=O)N(CC(N)=O)CC(CC)CCCC)CC(CC)CCCC)C(=O)CN(C=O)CCCN1CCOCC1 (stereo not drawn) [Compound 76] (For-[Gly(N-3-morpholinopropyl)][N(2-decanoyloxyethyl)Gly][N(2-decanoyloxyethyl)Gly][N(2-ethylhexyl)Gly][N(2-decanoyloxyethyl)Gly][N(2-decanoyloxyethyl)Gly][N(2-ethylhexyl)Gly]-NH2)", "unit_name": "%", "% Encapsulation": 79.9}

* * *

- assay_overview: Delivery vehicle size and polydispersity by dynamic light scattering
- Type: physicochemical
- setup_conditions: DLS in PBS; peptoid:DSPC:Cholesterol:DMG-PEG2000 weight ratio 20:1.79:7.16:1.84, mRNA
Starred links: 1 amine or outer side, 2 acyl side, 3 side chain; linkers in the order of their positions; H or OH if unused. Non-standard residues stand in square brackets, D forms with d. Residues, ends and D or L forms follow the SMILES beside them. *: point of attachment. Gly(N-(3-decanoyloxypropyl)) = CCCCCCCCCC(=O)OCCCNCC(=O)O; N(3-lauroyloxypropyl)Gly = CCCCCCCCCCCC(=O)OCCCNCC(=O)O; Gly(N-(CH2)3O-octanoyl) = CCCCCCCC(=O)OCCCNCC(=O)O; N(3-imidazol-1-ylpropyl)Gly = O=C(O)CNCCCn1ccnc1; Gly(N-3-morpholinopropyl) = O=C(O)CNCCCN1CCOCC1; N(2-ethylhexyl)Gly = CCCCC(CC)CNCC(=O)O; X2 = CCCCCCC(CCCC)CN(CC(=O)[*:2])[*:1]; Gly(N-dodecyl) = CCCCCCCCCCCCNCC(=O)O; N(CH(CH2OH)2)Gly = O=C(O)CNC(CO)CO; For = O=C*

{"molecule": "CCCCCCCCCC(=O)OCCCN(C=O)CC(=O)N(CCCOC(=O)CCCCCCCCC)CC(=O)N(CC(=O)N(CCCN1CCOCC1)CC(=O)N(CCCOC(=O)CCCCCCCCC)CC(=O)N(CCCOC(=O)CCCCCCCCC)CC(=O)N(CC(N)=O)CC(CC)CCCC)CC(CC)CCCC (centres unmarked) [Compound 112] (For-[Gly(N-(3-decanoyloxypropyl))][Gly(N-(3-decanoyloxypropyl))][N(2-ethylhexyl)Gly][Gly(N-3-morpholinopropyl)][Gly(N-(3-decanoyloxypropyl))][Gly(N-(3-decanoyloxypropyl))][N(2-ethylhexyl)Gly]-NH2)", "Particle Size": "95.4 nm"}
{"molecule": "CCCCCCCCCCCCN(C=O)CC(=O)N(CCCOC(=O)CCCCCCCCCCC)CC(=O)N(CC(=O)N(CCCn1ccnc1)CC(=O)N(CC(=O)N(CCCOC(=O)CCCCCCCCCCC)CC(=O)N(CCCCCCCCCCCC)CC(N)=O)CC(CC)CCCC)CC(CC)CCCC (centres unmarked) [Compound 85] (For-[Gly(N-dodecyl)][N(3-lauroyloxypropyl)Gly][N(2-ethylhexyl)Gly][N(3-imidazol-1-ylpropyl)Gly][N(2-ethylhexyl)Gly][N(3-lauroyloxypropyl)Gly][Gly(N-dodecyl)]-NH2)", "Particle Size": "81.1 nm"}
{"molecule": "CCCCCCCCCCCC(=O)OCCCN(CC(=O)N(CC(=O)N(CCCn1ccnc1)CC(=O)N(CC(=O)N(CCCOC(=O)CCCCCCCCCCC)CC(=O)N(CC(N)=O)CC(CC)CCCC)CC(CC)CCCC)CC(CC)CCCC)C(=O)CN(C=O)CC(CC)CCCC (centres unmarked) [Compound 82] (For-[N(2-ethylhexyl)Gly][N(3-lauroyloxypropyl)Gly][N(2-ethylhexyl)Gly][N(3-imidazol-1-ylpropyl)Gly][N(2-ethylhexyl)Gly][N(3-lauroyloxypropyl)Gly][N(2-ethylhexyl)Gly]-NH2)", "Particle Size": "81.5 nm"}
{"molecule": "CCCCCCCCCCCC(=O)OCCCN(CC(=O)N(CC(=O)N(CCCN1CCOCC1)CC(=O)N(CC(=O)N(CCCOC(=O)CCCCCCCCCCC)CC(=O)N(CC(N)=O)CC(CC)CCCC)CC(CC)CCCC)CC(CC)CCCC)C(=O)CN(C=O)CC(CC)CCCC (centres unmarked) [Compound 80] (For-[N(2-ethylhexyl)Gly][N(3-lauroyloxypropyl)Gly][N(2-ethylhexyl)Gly][Gly(N-3-morpholinopropyl)][N(2-ethylhexyl)Gly][N(3-lauroyloxypropyl)Gly][N(2-ethylhexyl)Gly]-NH2)", "Particle Size": "78.1 nm"}
{"molecule": "CCCCCCCC(=O)OCCCN(CC(=O)N(CC(=O)N(CC(=O)N(CCCOC(=O)CCCCCCC)CC(=O)N(CC(N)=O)CC(CCCC)CCCCCC)CC(CC)CCCC)CC(CCCC)CCCCCC)C(=O)CN(CC(CC)CCCC)C(=O)CNC(CO)CO (centres unmarked) [Compound 104] (H-[N(CH(CH2OH)2)Gly][N(2-ethylhexyl)Gly][Gly(N-(CH2)3O-octanoyl)][X2][N(2-ethylhexyl)Gly][Gly(N-(CH2)3O-octanoyl)][X2]-NH2)", "Particle Size": "78.8 nm"}

* * *

- Test system: mRNA
- assay_overview: mRNA encapsulation (modified Quant-iT RiboGreen assay)
- Format: physicochemical
- setup_conditions: mRNA; formulation recipe D22
Non-standard residues stand in square brackets, D forms with d. Residues, ends and D or L forms follow the SMILES beside them. *: point of attachment. Gly(N-(3-decanoyloxypropyl)) = CCCCCCCCCC(=O)OCCCNCC(=O)O; N(3-lauroyloxypropyl)Gly = CCCCCCCCCCCC(=O)OCCCNCC(=O)O; N(2-decanoyloxyethyl)Gly = CCCCCCCCCC(=O)OCCNCC(=O)O; Gly(N-3-morpholinopropyl) = O=C(O)CNCCCN1CCOCC1; N(2-ethylhexyl)Gly = CCCCC(CC)CNCC(=O)O; N(CH(CH2OH)2)Gly = O=C(O)CNC(CO)CO; N(octyl)Gly = CCCCCCCCNCC(=O)O; For = O=C*
Rule: % Encapsulation below 70% gives label 1. Equal to or above 70% gives label 0.

{"compound": "CCCCCCCCCC(=O)OCCN(CC(=O)N(CCOC(=O)CCCCCCCCC)CC(=O)N(CC(=O)N(CCOC(=O)CCCCCCCCC)CC(=O)N(CCOC(=O)CCCCCCCCC)CC(=O)N(CC(N)=O)CC(CC)CCCC)CC(CC)CCCC)C(=O)CN(C=O)CCCN1CCOCC1 (stereo not drawn) [Compound 76] (For-[Gly(N-3-morpholinopropyl)][N(2-decanoyloxyethyl)Gly][N(2-decanoyloxyethyl)Gly][N(2-ethylhexyl)Gly][N(2-decanoyloxyethyl)Gly][N(2-decanoyloxyethyl)Gly][N(2-ethylhexyl)Gly]-NH2)", "assay_target": "mRNA", "category": "label 1"}
{"compound": "CCCCCCCCCC(=O)OCCN(CC(N)=O)C(=O)CN(CCOC(=O)CCCCCCCCC)C(=O)CN(CC(CC)CCCC)C(=O)CN(CCOC(=O)CCCCCCCCC)C(=O)CN(CCOC(=O)CCCCCCCCC)C(=O)CN(CC(CC)CCCC)C(=O)CNC(CO)CO (stereo not drawn) [Compound 105] (H-[N(CH(CH2OH)2)Gly][N(2-ethylhexyl)Gly][N(2-decanoyloxyethyl)Gly][N(2-decanoyloxyethyl)Gly][N(2-ethylhexyl)Gly][N(2-decanoyloxyethyl)Gly][N(2-decanoyloxyethyl)Gly]-NH2)", "assay_target": "mRNA", "category": "label 0"}
{"compound": "CCCCCCCCCC(=O)OCCCN(CC(=O)N(CC(N)=O)CC(CC)CCCC)C(=O)CN(CCCCCCCC)C(=O)CN(CC(CC)CCCC)C(=O)CN(CCCOC(=O)CCCCCCCCC)C(=O)CN(CCCCCCCC)C(=O)CNC(CO)CO (stereo not drawn) [Compound 32] (H-[N(CH(CH2OH)2)Gly][N(octyl)Gly][Gly(N-(3-decanoyloxypropyl))][N(2-ethylhexyl)Gly][N(octyl)Gly][Gly(N-(3-decanoyloxypropyl))][N(2-ethylhexyl)Gly]-NH2)", "assay_target": "mRNA", "category": "label 1"}
{"compound": "CCCCCCCCCCCC(=O)OCCCN(CC(=O)N(CC(N)=O)CC(CC)CCCC)C(=O)CN(CCCCCCCC)C(=O)CN(CC(CC)CCCC)C(=O)CN(CCCOC(=O)CCCCCCCCCCC)C(=O)CN(CCCCCCCC)C(=O)CN(C=O)CCCN1CCOCC1 (stereo not drawn) [Compound 74] (For-[Gly(N-3-morpholinopropyl)][N(octyl)Gly][N(3-lauroyloxypropyl)Gly][N(2-ethylhexyl)Gly][N(octyl)Gly][N(3-lauroyloxypropyl)Gly][N(2-ethylhexyl)Gly]-NH2)", "assay_target": "mRNA", "category": "label 1"}
{"compound": "CCCCCCCCCC(=O)OCCCN(CC(=O)N(CC(=O)N(CC(=O)N(CCCOC(=O)CCCCCCCCC)CC(=O)N(CC(N)=O)CC(CC)CCCC)CC(CC)CCCC)CC(CC)CCCC)C(=O)CN(CC(CC)CCCC)C(=O)CNC(CO)CO (stereo not drawn) [Compound 5] (H-[N(CH(CH2OH)2)Gly][N(2-ethylhexyl)Gly][Gly(N-(3-decanoyloxypropyl))][N(2-ethylhexyl)Gly][N(2-ethylhexyl)Gly][Gly(N-(3-decanoyloxypropyl))][N(2-ethylhexyl)Gly]-NH2)", "assay_target": "mRNA", "category": "label 0"}
